test system: L. major LV39 WT promastigotes; assay: microbe, parasite or virus in culture; type: cell-based, Leishmania major; conditions: Leishmania major, LV39 WT, 750 nM ITZ; read-out: EC50 of MYR in combination with 750 nM ITZ
Value Type: EC50 (µM)

Molecule: CCCCCCC(=O)CCCCCC/C=C/C[C@@H](O)[C@H](O)[C@@](N)(CO)C(=O)O [MYR, myriocin]
Measure Unit: µM
Test Result: 1.5

###

system: L. major LV39 WT promastigotes; experiment: microbe, parasite or virus in culture; format: cell-based, Leishmania major; settings: Leishmania major, read-out: EC50 of ITZ in combination with 25 μM MYR

Molecule: CCC(C)n1ncn(-c2ccc(N3CCN(c4ccc(OCC5COC(Cn6cncn6)(c6ccc(Cl)cc6Cl)O5)cc4)CC3)cc2)c1=O (stereo not shown) [Itraconazole]
Measure Unit: nM
EC50: 0.92
